Provide the recorded growth AUC for the entries that follow.
Test system: Coprococcus comes
PROTOCOL_TEXT: growth AUC relative to DMSO control (median of replicates) (fraction); higher = more growth (less inhibition), active = hit call of the paper
CONDITION_PARAMETERS: 20 µM; 24 h

Measured on Coprococcus comes, CC(C)=CC1C(C(=O)OCN2C(=O)C3=C(CCCC3)C2=O)C1(C)C (centres undefined) has a documented growth AUC of 0.953 (inactive)

Value (growth AUC, Coprococcus comes) for record `CCOC(=O)c1ccccc1S(=O)(=O)NC(=O)Nc1nc(Cl)cc(OC)n1` = 0.988 (inactive)

Here `Clc1ccccc1-c1nnc(-c2ccccc2Cl)nn1` was tested on Coprococcus comes, and its growth AUC came to 0.911 (inactive)

The reported growth AUC value, Coprococcus comes, for `CCCN(CCC)N=O` reads 1.02 (inactive)

----------
I'd be grateful if you could share measured growth AUC for these entries.
Tested on: Odoribacter splanchnicus
PROTOCOL_TEXT: growth AUC relative to DMSO control (median of replicates) (fraction); higher = more growth (less inhibition), active = hit call of the paper
CONDITION_PARAMETERS: 20 µM; 24 h
Answer with the value's number alone.

get_value(item= `CC1(C(=O)Nc2ccc(O)c(Cl)c2Cl)CCCCC1` , readout=growth AUC) returns 0.907

Entry CCCCC(C#N)(Cn1cncn1)c1ccc(Cl)cc1 (stereo unspecified) — recorded growth AUC = 1.04

Reported growth AUC for `CNC(=O)c1cc(Cl)cc(C)c1NC(=O)c1cc(Br)nn1-c1ncccc1Cl` was 0.926

Briefly, growth AUC measured for COP(=O)(OC)Oc1ccc(S(C)=O)c(C)c1 (stereo unspecified) : 1.02

Form field growth AUC, entry `CN(C)c1nc(=O)n(C2CCCCC2)c(=O)n1C` : 1.02

For `Clc1cc(Cl)nc(-c2ccccc2)n1` the compound record lists growth AUC as 1.02

Input O=C1C2(Cl)C3(Cl)C4(Cl)C(Cl)(Cl)C5(Cl)C3(Cl)C1(Cl)C5(Cl)C24Cl (stereo unspecified) . Output growth AUC: 0.0248

Record `CCC(=O)Nc1ccc(Cl)c(Cl)c1` . Reported growth AUC: 0.943

So, `CCN(CC)N=O` ? Its growth AUC was 0.979

Given item `COc1cc(OC)nc(NC(=O)NS(=O)(=O)c2ncccc2C(=O)N(C)C)n1` , the value recorded as its growth AUC is 1.03

Note to self: growth AUC recorded for `CC(C)(O)C(Cl)(Cl)Cl.CC(C)(O)C(Cl)(Cl)Cl.O` was 0.967

Reported growth AUC for `CCOP(=O)(OCC)O/C(=C\Cl)c1ccc(Cl)cc1Cl` was 0.972

growth AUC reading for `CCNc1nc(NC(C)C)nc(OC)n1` : 1.01

For `Cc1[nH]c(=O)n(C(C)(C)C)c(=O)c1Cl` the compound record lists growth AUC as 1.02

Briefly, growth AUC measured for `Cc1nc(N(C)C)nc(OC(=O)N(C)C)c1C` : 1.01

Form: compound = `CCOP(=S)(OCC)Oc1ccc2c(C)c(Cl)c(=O)oc2c1` ; growth AUC = 1.01

Reported growth AUC ( `COP(=O)(OC)OC=C(Cl)Cl` ) = 1.01

For record `O=C(Nc1ccccc1)Nc1cnns1` the listed growth AUC is 0.938

Sure, the documented growth AUC for `O=[N+]([O-])c1cc(Cl)ccc1Cl` is 1.04

For `CCCCCCCCCCCCC1=C(OC(C)=O)C(=O)c2ccccc2C1=O` the compound record lists growth AUC as 0.959

growth AUC reported for this compound `Clc1c(Cl)c(Cl)c(Cl)c(Cl)c1Cl` : 1.03

Form field growth AUC, entry `CCOP(=S)(OCC)SCCS(=O)(=O)CC` : 1.06

Query `CCCCOCN(C(=O)CCl)c1c(CC)cccc1CC` yields growth AUC of 0.909

Note to self: growth AUC recorded for `Oc1ccc(C(c2ccc(O)cc2)(C(F)(F)F)C(F)(F)F)cc1` was 0.0871

# compound `CCNc1nc(Cl)nc(NC(C)(C)C)n1` ; its growth AUC = 1.01

`Nc1nc(N)nc(NC2CC2)n1` yielded growth AUC of 1.04

Entry under test: `CC(C)(C)[C@@H](O)[C@H](Oc1ccc(Cl)cc1)n1cncn1` . Its growth AUC was 0.833

Noted for ClC1=C(Cl)C2(Cl)C(CBr)CC1(Cl)C2(Cl)Cl (stereo unspecified) : its growth AUC reads 1.01

CNC(=O)ON=C(C)C(C)SC (stereo unspecified) has a reported growth AUC of 0.91

Recorded growth AUC (compound COP(N)(=O)SC (stereo unspecified) ): 1.04

growth AUC in this record for `Cl.NC1=NCCN1Cc1ccc(Cl)nc1` : 0.507

growth AUC measured on `COP(=O)(OC)Oc1ccc(SC)c(C)c1` = 0.994

The recorded growth AUC for entry `CNc1nc(C)c(C)c(OC(=O)N(C)C)n1` equals 0.985

So, `Oc1ccc(Cl)cc1` ? Its growth AUC was 1.01

For reference, reported growth AUC for CC1(C)CC/C(=C\c2ccc(Cl)cc2)C1(O)Cn1cncn1 (stereo unspecified) stands at 1.04

For reference, reported growth AUC for `CCOP(=S)(OCC)SCS(=O)(=O)C(C)(C)C` stands at 0.979

GET /value?item= `CCCN(CCC)c1c([N+](=O)[O-])cc(C(C)C)cc1[N+](=O)[O-]` &field=growth AUC returns 0.989

Input `CN(C)C(=O)Nc1cccc(OC(=O)NC(C)(C)C)c1` . Output growth AUC: 0.551

response.value for ClC1=C(Cl)C2(Cl)C3C(Cl)C=CC3C1(Cl)C2(Cl)Cl (stereo unspecified) (field: growth AUC) = 0.964

Entry `COc1ccc(/C(=C/C(=O)N2CCOCC2)c2ccc(F)cc2)cc1OC` — recorded growth AUC = 1.06

According to the records, this compound `CCCN(CCC)C(=O)SCc1ccccc1` displays growth AUC of 1.08

What the record says about `CNC(=O)/C(=N/OC)c1ccccc1Oc1ccccc1` : growth AUC is 0.992

Documented growth AUC of `O=C(Nc1ccc(F)cc1F)c1cccnc1Oc1cccc(C(F)(F)F)c1` : 1.06

// `O=[N+]([O-])NC1=NCOCN1Cc1cnc(Cl)s1` : growth AUC value = 1.04

Entry O=c1oc2ccccc2c(O)c1C1CC(c2ccc(-c3ccccc3)cc2)Cc2ccccc21 (stereo unspecified) , growth AUC reported as 0.959

The compound listed as `O=c1ccc(=O)[nH][nH]1` has a reported growth AUC of 1.08
